Target: T1, wildtype feline IL-31 protein (Feline_IL31_wildtype) (feline)
T1 construct: Full length feline IL-31 with C-terminal His tag, secreted from ExpiCHO cells; also called fIL-31
T1 chain: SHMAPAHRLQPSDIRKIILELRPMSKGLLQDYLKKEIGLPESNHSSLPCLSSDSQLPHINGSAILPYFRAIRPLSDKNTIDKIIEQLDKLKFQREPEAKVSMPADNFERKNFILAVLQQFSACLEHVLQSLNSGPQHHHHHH
Assay: indirect ELISA, IL-31 protein coated
Parameter: ELISA OD

Problem: Name the recorded ELISA OD for ZIL94 (recombinant fully canine antibody) (antibody, V domains shown, also called CAN-ZIL94) VH: EVQLVDSGGDLVKPGGSLRLSCVASGFTFSTYFMSWVRQAPGRGLQWVALISSDGSGTYYADAVKGRFTISRDNAKNTLYLQMNSLRAEDTAMYYCAIFWRAFNDWGQGTLVTVSS VL: QTVVIQEPSLSVSPGGTVTLTCGLNSGSVSTSNYPGWYQQTRGRTPRTIIYDTGSRPSGVPNRFSGSISGNKAALTITGAQPEDEADYYCSLYTDSDILVFGGGTHLTVLR .
Solution: 1.67 OD

Values from patent US20250136677A1
